Value source: paper PMC9932118

- measurement.target: ZBTB7A long fragment (Homo sapiens, UniProt O95365 341-505)
- Sequence (O95365 341-505): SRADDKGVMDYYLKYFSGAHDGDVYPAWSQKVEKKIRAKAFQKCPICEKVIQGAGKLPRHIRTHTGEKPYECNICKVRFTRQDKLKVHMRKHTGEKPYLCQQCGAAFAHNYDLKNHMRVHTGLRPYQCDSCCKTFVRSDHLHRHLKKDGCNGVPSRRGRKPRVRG
- assay.remarks: FP
experimental.endpoint: Kd

Query: I'd like to know its Kd. The binder in question is oligo #6 CAST 16 bp (dsDNA) DNA 1: AAGACCCCTCCCCGAA DNA 2: TTCGGGGAGGGGTCTT
Result: ~80 nM
